- Tested on: Yap1 mRNA
- method_summary: Dose-dependent inhibition of human Yap1 in A-431 cells (Example 7, 10,000 cells per well, RTS36584)
- Type: cell-based
- protocol_conditions: Table 56, 4000.00 nM, free uptake, A-431 cells 10,000 cells per well, 48 hours
Strand notation (5' to 3'): a small letter for the sugar, then the base; units joined by * are phosphorothioate-linked, units joined directly phosphodiester-linked; [ ] holds rarer units or linkages, { } end groups; capitals alone tell only the bases. k = constrained ethyl (cEt); [5mC] = 5-methylcytosine; d = 2'-deoxy (DNA)
observable: Yap1 mRNA, % UTC (% UTC)
One number for each entry, in % UTC.

>>> observed_result("958373 (antisense kA*kG*kG*dT*dG*d[5mC]*dT*dA*dG*d[5mC]*dT*dG*dG*kT*kG*k[5mC]) [compound 958373]")
17

Give me Yap1 mRNA, % UTC for each of these substances, listed below.
1. 958370 (antisense k[5mC]*kT*kT*dT*dA*dT*d[5mC]*dT*dA*dG*d[5mC]*dT*dT*kG*kG*kT) [compound 958370]
2. 958721 (kG*kT*kA*dG*dT*dA*dT*dA*dA*dT*dG*dA*dG*kT*kT*kA; antisense) [compound 958721]

OUT:
[22, 3]

Return reported Yap1 mRNA, % UTC values for all items listed beneath this line.
1. 958356 (antisense kT*kT*kG*dA*dA*dG*dA*dA*dG*dG*dA*dG*dT*k[5mC]*kG*kG) [compound 958356]
2. 958536 (kA*kG*kG*dG*dT*d[5mC]*dA*dA*dT*dT*dT*dT*d[5mC]*kA*kG*k[5mC]; antisense) [compound 958536]
3. 958371 (antisense kA*k[5mC]*k[5mC]*dA*dA*d[5mC]*dT*dA*dT*dT*dA*d[5mC]*dT*kT*k[5mC]*kA) [compound 958371]

OUT:
[21, 16, 11]

====

- Test system: Yap1 mRNA
- method_summary: Dose-dependent inhibition of human Yap1 in A-431 cells (Example 8, 10,000 cells per well, RTS4814)
- Format: cell-based
- protocol_conditions: 2000.00 nM; A-431 cells, 10,000 cells per well, free uptake, approximately 48 hours, RTS4814
- Method: Modified oligonucleotides described in the studies above were tested at various doses in A-431 cells. […] After approximately 48 hours, Yap1 mRNA levels were measured as previously described using the Human Yap1 primer-probe set RTS4814. Yap1 mRNA levels were normalized to total RNA content, as measured by RIBOGREEN®. […] IC50s were calculated using a linear regression on a log/linear plot of the data in excel.
Strand notation (5' to 3'): a small letter for the sugar, then the base; units joined by * are phosphorothioate-linked, units joined directly phosphodiester-linked; [ ] holds rarer units or linkages, { } end groups; capitals alone tell only the bases. k = constrained ethyl (cEt); [5mC] = 5-methylcytosine; d = 2'-deoxy (DNA)
Consider the following substances; for each one, report its Yap1 mRNA, % UTC.
Answers are plain numbers, in % UTC.

Reference set, count: 5
>>> observed_result("1074566 (DNA CACTGAATTCCAATCG; 3-10-3 cEt gapmer, chemistry not fully specified) [compound 1074566]")
3
>>> observed_result("1074766 (kA*kT*k[5mC]*d[5mC]*d[5mC]*dA*dA*dT*dG*d[5mC]*dT*dA*d[5mC]*k[5mC]*k[5mC]*kA; antisense) [compound 1074766]")
7
>>> observed_result("1074564 (DNA k[5mC]*kT*kG*dA*dA*dT*dT*d[5mC]*d[5mC]*dA*dA*dT*d[5mC]*kG*kA*kG) [compound 1074564]")
4
>>> observed_result("1076397 (antisense kA*kA*k[5mC]*d[5mC]*dT*dA*dT*dA*dT*dT*dT*dG*dA*kG*k[5mC]*k[5mC]) [compound 1076397]")
4
>>> observed_result("1075401 (antisense k[5mC]*kG*kA*dT*dT*dA*dA*dA*dA*d[5mC]*dA*d[5mC]*dT*kG*kG*kT) [compound 1075401]")
7

# map each substance to its Yap1 mRNA, % UTC
1. 1075243 (k[5mC]*kT*kT*dA*dG*dT*dA*dA*dG*dA*dA*dT*dT*kG*kT*k[5mC]; antisense) [compound 1075243]
2. 1075939 (antisense k[5mC]*kT*kT*dG*dA*dA*dT*dA*dT*dA*dT*dG*dG*kG*kT*kT) [compound 1075939]
3. 1075089 (k[5mC]*kA*kT*dT*dT*dA*dT*dA*dG*dT*d[5mC]*dA*dG*kG*kT*kT; antisense) [compound 1075089]

OUT:
[5, 8, 3]

====

Provide the reported YAP1 (% UT) of each item.
- Test system: Yap1 mRNA
- method_summary: Antisense inhibition of human Yap1 in SNU-449 cells by modified oligonucleotides, single dose (Example 5, RTS36584)
- Type: cell-based
- protocol_conditions: Table 50; Yap1 mRNA remaining as percent of untreated control (UT), SNU-449 cells, single dose
Strand notation (5' to 3'): a small letter for the sugar, then the base; units joined by * are phosphorothioate-linked, units joined directly phosphodiester-linked; [ ] holds rarer units or linkages, { } end groups; capitals alone tell only the bases. e = 2'-O-(2-methoxyethyl) (MOE); k = constrained ethyl (cEt); [5mC] = 5-methylcytosine; d = 2'-deoxy (DNA); m = 2'-O-methyl
Give bare numbers, in % UT.

For orientation, consider the following solved cases.
>>> observed_result("1197231 (antisense kA*kT*kG*dG*mA*dA*dA*dT*dT*dG*dT*d[5mC]*dT*k[5mC]*kA*kT) [Compound 1197231]")
50
>>> observed_result("1198592 (antisense kA*kT*kA*dT*dG*dG*dT*dT*dT*dT*dG*dT*kG*kT*kG*eT) [Compound 1198592]")
50
>>> observed_result("1198561 (antisense kG*kG*kT*dA*dT*dA*dA*d[5mC]*dT*dG*dG*dG*k[5mC]*kA*kA*eA) [Compound 1198561]")
29
>>> observed_result("1198603 (antisense kA*kA*kT*dA*dT*dT*dG*d[5mC]*dA*dA*dT*d[5mC]*kT*kG*kT*e[5mC]) [Compound 1198603]")
51
>>> observed_result("1197245 (antisense kT*kT*kT*dT*mA*d[5mC]*dA*dT*dT*dA*dG*dG*dA*kA*k[5mC]*kA) [Compound 1197245]")
60

Give YAP1 (% UT) for each of the items listed below.
1. 1198586 (antisense kA*kT*kT*dT*dA*dG*dG*dA*dT*dG*d[5mC]*dA*kT*kG*kG*eT) [Compound 1198586]
2. 1197229 (antisense kG*kG*kA*dA*mA*dT*dT*dG*dT*d[5mC]*dT*d[5mC]*dA*kT*kG*k[5mC]) [Compound 1197229]
3. 1198597 (antisense kA*k[5mC]*kT*d[5mC]*dT*dT*dA*dT*dA*dT*dG*dG*kT*kT*kT*eT) [Compound 1198597]
4. 1198585 (antisense kT*kT*kT*dA*dG*dG*dA*dT*dG*d[5mC]*dA*dT*kG*kG*kT*eT) [Compound 1198585]
5. 1074461 (kG*kA*kA*dA*dT*dT*dG*dT*d[5mC]*dT*d[5mC]*dA*dT*kG*k[5mC]*k[5mC]) [Compound 1074461]
6. 1198590 (antisense kT*k[5mC]*kA*dG*dA*dT*dT*dT*dA*dG*dG*dA*kT*kG*k[5mC]*eA) [Compound 1198590]
7. 1198621 (kA*kA*kG*dT*dA*dA*dG*dG*dT*dT*dT*d[5mC]*k[5mC]*k[5mC]*kA*eG; antisense) [Compound 1198621]
8. 1198609 (antisense kT*kT*kT*dA*dT*dG*dT*dA*dA*dT*dA*dT*kT*kG*k[5mC]*eA) [Compound 1198609]

OUT:
1: 96; 2: 21; 3: 27; 4: 22; 5: 16; 6: 46; 7: 80; 8: 52

====

Assignment: determine reported Yap1 mRNA, % UTC for the given substances.
- Test system: Yap1 mRNA
- method_summary: Dose-dependent inhibition of human Yap1 in A-431 cells (Example 24, 11,000 cells per well, RTS36584, normalized to GAPDH)
- Format: cell-based
- protocol_conditions: 0.2 μM, free uptake, 48 hours, RTS36584, normalized to GAPDH
One number for each entry, in % UTC.

>>> observed_result("1198623 (CTAAGTAAGGTTTCCC; modified gapmer, further chemistry not given here) [compound 1198623]")
72
>>> observed_result("1076453 (GTAATATTGCAATCTG; 3-10-3 cEt gapmer, further chemistry not given here) [compound 1076453]")
74

For every item in the list below, what is its measured Yap1 mRNA, % UTC?
1. 1198831 (CACTTTTACATTAGGA; chemically modified gapmer, further chemistry not given here) [compound 1198831]
2. 1198872 (TGTATGTCAGAAGAGT; chemically modified gapmer, further chemistry not given here) [compound 1198872]

OUT:
1: 72; 2: 70
